Listed next: entries and their corresponding β Phase Half-life (min).
assay_procedure: Pharmacokinetic study in mice: plasma clearance of 125I-labeled protein, SEC of plasma
Format: in vivo
experimental_context: tail vein injection, bi-exponential fit
Numbers only here, please. The scale is min.

β Phase Half-life (min) for DX-890: 56 amino acid Kunitz domain polypeptide derived from ITI-D2, inhibitor of human neutrophil elastase, produced in Pichia pastoris (EACNLPIVRGPCIAFFPRWAFDAVKGKCVLFPYGGCQGNGNKFYSEKECREYCGVP) is 79

β Phase Half-life (min) for PEG20-DX-890-6.0: DX-890 conjugated to a 20 kDa PEG moiety (MPEG-SPA20K, conjugated at pH 6), mono-PEGylated (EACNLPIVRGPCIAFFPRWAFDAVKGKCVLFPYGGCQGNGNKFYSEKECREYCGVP) is 296

β Phase Half-life (min) for PEG20-DX-890-7.4: DX-890 conjugated to a 20 kDa PEG moiety (MPEG-SPA20K, conjugated at pH 7.4), mono-PEGylated (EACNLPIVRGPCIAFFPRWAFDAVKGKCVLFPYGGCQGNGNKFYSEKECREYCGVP) is 307

β Phase Half-life (min) for PEG30-DX-890-6.0: DX-890 conjugated to a 30 kDa PEG moiety (MPEG-SPA30K, conjugated at pH 6), mono-PEGylated (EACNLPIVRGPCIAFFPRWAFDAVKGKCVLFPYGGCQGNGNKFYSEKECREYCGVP) is 505

---

assay_procedure: Pharmacokinetic study in mice: plasma clearance of 125I-labeled protein, SEC of plasma
Format: in vivo
experimental_context: tail vein injection, bi-exponential fit
outcome_measure: α Phase Clearance (%)

# annotated cases, reported α Phase Clearance (%) shown
>  <substance>
PEG30-DX-890-6.0: DX-890 conjugated to a 30 kDa PEG moiety (MPEG-SPA30K, conjugated at pH 6), mono-PEGylated (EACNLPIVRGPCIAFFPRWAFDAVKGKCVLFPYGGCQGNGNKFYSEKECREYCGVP)

>  <α Phase Clearance (%)>
33%

$$$$
>  <substance>
PEG20-DX-890-6.0: DX-890 conjugated to a 20 kDa PEG moiety (MPEG-SPA20K, conjugated at pH 6), mono-PEGylated (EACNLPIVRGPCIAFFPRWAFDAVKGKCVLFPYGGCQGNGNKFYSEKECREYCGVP)

>  <α Phase Clearance (%)>
53%

$$$$
>  <substance>
PEG20-DX-890-7.4: DX-890 conjugated to a 20 kDa PEG moiety (MPEG-SPA20K, conjugated at pH 7.4), mono-PEGylated (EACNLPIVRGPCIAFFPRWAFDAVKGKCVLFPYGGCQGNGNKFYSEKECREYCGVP)

>  <α Phase Clearance (%)>
58%

$$$$

α Phase Clearance (%) for DX-890: 56 amino acid Kunitz domain polypeptide derived from ITI-D2, inhibitor of human neutrophil elastase, produced in Pichia pastoris (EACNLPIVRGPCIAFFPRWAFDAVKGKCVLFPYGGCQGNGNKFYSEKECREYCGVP) is 84%

---

assay_procedure: Pharmacokinetic study in mice: plasma clearance of 125I-labeled protein, SEC of plasma
Format: in vivo
experimental_context: tail vein injection, bi-exponential fit
outcome_measure: β Phase Half-life (hr)
Express your answer as a number followed by its unit.

>  <substance>
PEG20-DX-890-7.4: DX-890 conjugated to a 20 kDa PEG moiety (MPEG-SPA20K, conjugated at pH 7.4), mono-PEGylated (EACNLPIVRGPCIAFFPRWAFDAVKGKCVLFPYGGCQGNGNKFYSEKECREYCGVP)

>  <β Phase Half-life (hr)>
5.1 h

$$$$
>  <substance>
DX-890: 56 amino acid Kunitz domain polypeptide derived from ITI-D2, inhibitor of human neutrophil elastase, produced in Pichia pastoris (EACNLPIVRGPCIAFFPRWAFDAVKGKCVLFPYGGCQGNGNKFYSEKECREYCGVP)

>  <β Phase Half-life (hr)>
1.3 h

$$$$
>  <substance>
PEG30-DX-890-6.0: DX-890 conjugated to a 30 kDa PEG moiety (MPEG-SPA30K, conjugated at pH 6), mono-PEGylated (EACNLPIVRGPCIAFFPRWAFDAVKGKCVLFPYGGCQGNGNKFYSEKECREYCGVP)

>  <β Phase Half-life (hr)>
8.4 h

$$$$

Now, please, on to the next substance.
β Phase Half-life (hr) for PEG20-DX-890-6.0: DX-890 conjugated to a 20 kDa PEG moiety (MPEG-SPA20K, conjugated at pH 6), mono-PEGylated (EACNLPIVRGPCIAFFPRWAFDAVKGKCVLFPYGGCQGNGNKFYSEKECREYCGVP) is 4.9 h
